- tested-target: JUN (Homo sapiens, UniProt P05412)
- Sequence (P05412 whole entry): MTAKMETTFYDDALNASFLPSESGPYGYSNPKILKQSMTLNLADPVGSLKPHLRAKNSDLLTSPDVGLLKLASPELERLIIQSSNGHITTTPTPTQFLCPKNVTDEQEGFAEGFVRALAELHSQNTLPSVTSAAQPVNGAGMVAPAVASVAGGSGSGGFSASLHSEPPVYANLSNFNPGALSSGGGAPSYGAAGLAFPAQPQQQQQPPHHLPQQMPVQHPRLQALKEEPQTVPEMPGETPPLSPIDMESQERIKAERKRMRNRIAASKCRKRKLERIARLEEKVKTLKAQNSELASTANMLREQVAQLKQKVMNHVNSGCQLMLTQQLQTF
- experiment-notes: FRET or BRET; direct-binding FRET in 384-well plates; rhodamine-labelled design (acceptor) titrated 0 to 1 uM into 10 nM fluorescein-labelled bZIP (donor); 150 mM KCl, 50 mM potassium phosphate pH 7.4, 0.1% Tween-20, 0.1% BSA; 4 °C
Where no end group is shown, it is not given here.
measurement-label: Kd

I have this binder here, ATF5-d1 labeled at the N-terminus (designed binder) GESKEYKKGSGSC(Rhodamine Red C2‑maleimide)GKRIAYLRQRIAELRNENHVLESRIQRMEKEKDALQQDRDHLEYEL , and I need its recorded Kd.
> 5 µM

Values compiled from paper PMC4335062.
